MRT for assorted molecules
test: MRT in ICR mouse at 5 micromol/kg, iv measured after 24 hrs by LC-MS/MS analysis; format: ADME, organism-based; details: in vivo, dose 5 µmol/kg
Reply with just the number (in h).

Prompt: Look up MRT for this molecule: `O=c1nc(N2CCN(CC3CCCCC3)CC2)sc2c([N+](=O)[O-])cc(C(F)(F)F)cc12`
Response: 1.42

Prompt: I have this molecule here, `CN(CC#Cc1ccccc1)c1nc(=O)c2cc(C(F)(F)F)cc([N+](=O)[O-])c2s1` , and I need its recorded MRT.
Response: 2.72

Prompt: Form field: reported MRT of `CN(CC#Cc1cscn1)c1nc(=O)c2cc(C(F)(F)F)cc([N+](=O)[O-])c2s1`
Response: 1.05
